The listing below reports IC50 for compounds tested on Human MMP14 (Homo sapiens, UniProt P50281).
READOUT_KIND: IC50 (µM)

>>> obs_value("Cc1cc(COc2ccc(S(=O)(=O)CC(C3CCC(=NOC=O)CC3)N(O)C=O)cc2)c2ccccc2n1 (stereo not shown) [Example I-13]")
40
>>> obs_value("COc1ccc(CN2C(=O)SCC2C(CS(=O)(=O)c2ccc(OCc3cc(C)nc4ccccc34)cc2)N(O)C=O)cc1 (stereo not shown) [Example I-59]")
60
>>> obs_value("Cc1cc(COc2ccc(S(=O)(=O)CC(c3ccccc3C)N(O)C=O)cc2)c2cccc(F)c2n1 (stereo not shown) [Example I-124]")
7
>>> obs_value("Cc1cc(Cl)cc(COc2ccc(S(=O)(=O)CC(C=C3CCC(=NO)CC3)N(O)C=O)cc2)c1 (stereo not shown) [Example I-102]")
33
>>> obs_value("Cc1cc(C)cc(COc2ccc(S(=O)(=O)CC(C=C3CCC4(CC3)OCCO4)N(O)C=O)cc2)c1 (stereo not shown) [Example I-91]")
40
